The following compounds are shown together with reported apparent binding constant K app values.
- Test system: calf thymus (CT)-DNA
- Test protocol: CT-DNA-EB fluorescence displacement
- Format: binding
- Assay conditions: EB displacement

Mol | apparent binding constant K app
Clc1ccccc1-c1nnc([S][Ag]([PH](c2ccccc2)(c2ccccc2)c2ccccc2)([PH](c2ccccc2)(c2ccccc2)c2ccccc2)[PH](c2ccccc2)(c2ccccc2)c2ccccc2)o1 | 6.9 × 10^4 M^–1
Fc1ccccc1-c1nnc([S][Ag]([PH](c2ccccc2)(c2ccccc2)c2ccccc2)([PH](c2ccccc2)(c2ccccc2)c2ccccc2)[PH](c2ccccc2)(c2ccccc2)c2ccccc2)o1 | 6.7 × 10^4 M^–1
Fc1ccc(-c2nnc([S][Ag]([PH](c3ccccc3)(c3ccccc3)c3ccccc3)([PH](c3ccccc3)(c3ccccc3)c3ccccc3)[PH](c3ccccc3)(c3ccccc3)c3ccccc3)o2)cc1 | 7.0 × 10^4 M^–1
Clc1cccc(-c2nnc([S][Ag]([PH](c3ccccc3)(c3ccccc3)c3ccccc3)([PH](c3ccccc3)(c3ccccc3)c3ccccc3)[PH](c3ccccc3)(c3ccccc3)c3ccccc3)o2)c1 | 6.5 × 10^4 M^–1
c1ccc(-c2nnc([S][Ag]([PH](c3ccccc3)(c3ccccc3)c3ccccc3)([PH](c3ccccc3)(c3ccccc3)c3ccccc3)[PH](c3ccccc3)(c3ccccc3)c3ccccc3)o2)cc1 | 6.3 × 10^4 M^–1
